details: rat, microsomes
This section presents compounds with their documented t1/2 values.
Recorded endpoint: t1/2 (min)

INSERT INTO results (compound, value_qualifier, data_value) VALUES
  ('CC(C)(CN1CCCCC1)Oc1ccc(-c2cnc3c(-c4ccc(S(N)(=O)=O)c5ccccc45)cnn3c2)cc1', '=', 6.1),
  ('CC(C)(N)c1ccc(-c2cnc3c(-c4ccc(S(N)(=O)=O)c5ccccc45)cnn3c2)cc1', '>', 30),
  ('NS(=O)(=O)c1ccc(-c2cnn3cc(-c4ccc(CN5CCCC5)cc4)cnc23)c2ccccc12', '=', 21.9),
  ('NS(=O)(=O)c1ccc(-c2cnn3cc(-c4ccc(OCCN5CCCC5)cc4)cnc23)c2ccccc12', '>', 30),
  ('CN(C)CCOc1ccc(-c2cnc3c(-c4ccc(S(N)(=O)=O)c5ccccc45)cnn3c2)cn1', '=', 9.4),
  ('NS(=O)(=O)c1ccc(-c2cnn3cc(-c4ccc(C5CCNCC5)cc4)cnc23)c2ccccc12', '>', 30),
  ('NS(=O)(=O)c1ccc(-c2cnn3cc(-c4ccc(OCCN5CCCCC5)nc4)cnc23)c2ccccc12', '=', 20.9),
  ('CC(c1ccc(-c2cnc3c(-c4ccc(S(N)(=O)=O)c5ccccc45)cnn3c2)cc1)N1CCCC1 (centres undefined)', '=', 22.8),
  ('NS(=O)(=O)c1ccc(-c2cnn3cc(-c4ccc(N5CCNCC5)nc4)cnc23)c2ccccc12', '>', 30);
